# test name: physchem
# Description: Dissociation constant, pKa of the compound
What pKa was measured for each of the following?
Numbers only.

Recorded pKa, per entry:
>  <compound>
Cc1c(-c2ccccc2)oc2c(C(=O)OCCN3CCCCC3)cccc2c1=O [FLAVOXATE]

>  <assay endpoint>
pKa

>  <experimental result>
7.3

$$$$
>  <compound>
CCN(CC)CCNC(=O)c1cc(Br)c(N)cc1OC [BROMOPRIDE]

>  <assay endpoint>
pKa

>  <experimental result>
9.35

$$$$
>  <compound>
O[C@@](CCN1CCCCC1)(c1ccccc1)C1CCCCC1 [TRIHEXYPHENIDYL]

>  <assay endpoint>
pKa

>  <experimental result>
8.7

$$$$
>  <compound>
CN1CCC(=C2c3ccccc3C=Cc3ccccc32)CC1 [CYPROHEPTADINE]

>  <assay endpoint>
pKa

>  <experimental result>
8.87

$$$$
>  <compound>
COc1ccc(Cc2nccc3cc(OC)c(OC)cc23)cc1OC [PAPAVERINE]

>  <assay endpoint>
pKa

>  <experimental result>
6.25

$$$$
>  <compound>
COc1cccc([C@@]2(O)CCCC[C@@H]2CN(C)C)c1 [TRAMADOL]

>  <assay endpoint>
pKa

>  <experimental result>
9.37

$$$$

For every record below, what is its pKa?
1. COc1cc(N)c(Cl)cc1C(=O)NC1CCN(Cc2ccccc2)CC1 [CLEBOPRIDE]
2. CC12CC3CC(C)(C1)CC(N)(C3)C2 [MEMANTINE]
3. CN(C)CC/C=C1/c2ccccc2Sc2ccc(Cl)cc21 [CHLORPROTHIXENE]
4. Fc1ccc(C(c2ccc(F)cc2)N2CCN(C/C=C/c3ccccc3)CC2)cc1 [FLUNARIZINE]

1. 8.59
2. 10.4
3. 8.84
4. 7.71

---

What logP was measured for each of the following?
# test name: Partition coefficient, log P of the compound
# Assay type: physicochemical
# details: octanol/water; read-out: LogP
One number for each entry.

Recorded logP, per entry:
>  <compound>
O=c1[nH]c2ccccc2n1CCCN1CCC(n2c(=O)[nH]c3cc(Cl)ccc32)CC1

>  <assay endpoint>
logP

>  <experimental result>
4.05

$$$$
>  <compound>
CCN1CCCC1CNC(=O)c1cc(S(N)(=O)=O)ccc1OC (centres undefined) [SULPIRIDE]

>  <assay endpoint>
logP

>  <experimental result>
0.42

$$$$
>  <compound>
COc1cc(N)c(Cl)cc1C(=O)NC1CCN(Cc2ccccc2)CC1 [CLEBOPRIDE]

>  <assay endpoint>
logP

>  <experimental result>
2.72

$$$$

With those in mind, consider the next compound.
# compound `COc1ccc(Cc2nccc3cc(OC)c(OC)cc23)cc1OC` ; its logP = 2.93

---

# test name: physchem
assay endpoint: pKa
One number for each entry.

Recorded pKa, per entry:
>  <compound>
Cc1ccccc1C(OCCN(C)C)c1ccccc1 (stereo not given) [ORPHENADRINE]

>  <pKa>
8.4

$$$$
>  <compound>
N#Cc1ccc2c(c1)N(CCCN1CCC(O)CC1)c1ccccc1S2 [PERICIAZINE]

>  <pKa>
8.76

$$$$
>  <compound>
CC(CN(C)C)CN1c2ccccc2Sc2ccccc21 (stereo not given) [METHYLPROMAZINE]

>  <pKa>
9.11

$$$$

For every record below, what is its pKa?
1. Cc1ccc(C(=CCN2CCCC2)c2ccccn2)cc1 [TRIPROLIDINE]
2. COc1ccc(CCN2CCC(Nc3nc4ccccc4n3Cc3ccc(F)cc3)CC2)cc1 [ASTEMIZOLE]
3. NC(=O)C1(N2CCCCC2)CCN(CCCC(=O)c2ccc(F)cc2)CC1 [PIPAMPERONE]
4. COc1ccc2c(c1OC)C(=O)O[C@@H]2[C@H]1c2c(cc3c(c2OC)OCO3)CCN1C [NOSCAPINE]
5. CNC1(C)C2CCC(C2)C1(C)C (stereo not given) [MECAMYLAMINE]
6. CCCCNc1ccc(C(=O)OCCN(C)C)cc1 [TETRACAINE]
7. O=c1[nH]c2ccccc2n1C1CCN(CCCC(c2ccc(F)cc2)c2ccc(F)cc2)CC1 [PIMOZIDE]

1: 9.69; 2: 8.5; 3: 8.28; 4: 6.2; 5: 11.2; 6: 8.39; 7: 8.63

---

# test name: physchem
just bin them by pKa: band 1: < 8; band 2: ≥ 8 and < 9; band 3: ≥ 9

>  <compound>
CN1CCC(=C2c3ccccc3CC(=O)c3sccc32)CC1

>  <assigned category>
band 2

$$$$
>  <compound>
COc1ccc2c(c1)[nH]c1c(C)nccc12

>  <assigned category>
band 1

$$$$
>  <compound>
CN(C)CCCN1c2ccccc2Sc2ccccc21

>  <assigned category>
band 3

$$$$

Field: class (pKa) — entry: CC(C)(C)c1ccc(C(O)CCCN2CCC(C(O)(c3ccccc3)c3ccccc3)CC2)cc1 (centres undefined)
band 2

Field: class (pKa) — entry: `c1ccc(CN(CC2=NCCN2)c2ccccc2)cc1`
band 3

Field: class (pKa) — entry: `COC(=O)[C@H]1[C@H]2C[C@@H]3c4[nH]c5cc(OC)ccc5c4CCN3C[C@H]2C[C@@H](OC(=O)c2cc(OC)c(OC)c(OC)c2)[C@@H]1OC`
band 1

---

# test name: physchem
Mark yes (1) for reported pKa of 9 or greater; mark no (0) for anything smaller.

>  <molecule>
CN1[C@@H]2CC[C@H]1C[C@@H](OC(c1ccccc1)c1ccccc1)C2

>  <assigned category>
yes (1)

$$$$
>  <molecule>
C[C@H]1[C@H]2Cc3ccc(O)cc3[C@]1(C)CCN2CC1CC1

>  <assigned category>
yes (1)

$$$$

Hello, I need to know if CCOC(=O)c1cncn1[C@H](C)c1ccccc1 [ETOMIDATE] has measured pKa not below 9. Thanks!
no (0)

---

What pKa was measured for each of the following?
# test name: physchem

Recorded pKa, per entry:
>  <compound>
CN(Cc1cc(Br)cc(Br)c1N)C1CCCCC1

>  <assay endpoint>
pKa

>  <experimental result>
8.5

$$$$
>  <compound>
NCCc1cc(O)c(O)cc1O

>  <assay endpoint>
pKa

>  <experimental result>
10.3

$$$$
>  <compound>
O=C1NCN(c2ccccc2)C12CCN(CCCC(c1ccc(F)cc1)c1ccc(F)cc1)CC2

>  <assay endpoint>
pKa

>  <experimental result>
8.66

$$$$
>  <compound>
CN[C@H]1CC[C@@H](c2ccc(Cl)c(Cl)c2)c2ccccc21 (single isomer, unassigned)

>  <assay endpoint>
pKa

>  <experimental result>
9.16

$$$$
>  <compound>
C(=C\c1ccccc1)/CN1CCN(C(c2ccccc2)c2ccccc2)CC1

>  <assay endpoint>
pKa

>  <experimental result>
7.47

$$$$

With those in mind, consider the next compound.
# compound CC(NCCC(c1ccccc1)c1ccccc1)c1ccccc1 (stereo unspecified) ; its pKa = 9.04

---

# test name: Partition coefficient, log P of the compound
# Type: physicochemical
# details: octanol/water; read-out: LogP
logP vs 4: less than gives 1; not less than gives 0.

>  <compound>
Fc1ccc(C(c2ccc(F)cc2)N2CCN(C/C=C/c3ccccc3)CC2)cc1

>  <assigned category>
0

$$$$
>  <compound>
CN1CCC(=C2c3ccccc3CC(=O)c3sccc32)CC1

>  <assigned category>
1

$$$$
>  <compound>
CN1CCN(C2=Nc3cc(Cl)ccc3Nc3ccccc32)CC1

>  <assigned category>
1

$$$$
>  <compound>
c1ccc(CN(CC2=NCCN2)c2ccccc2)cc1

>  <assigned category>
0

$$$$
>  <compound>
CCOC(=O)c1cncn1[C@H](C)c1ccccc1 [ETOMIDATE]

>  <assigned category>
1

$$$$

Threshold test, logP < 4: `Nc1ncn([C@@H]2O[C@H](CO)[C@@H](O)[C@H]2O)c(=O)n1`
1

Threshold test, logP < 4: `O=C(CCCN1CCC(O)(c2ccc(Cl)cc2)CC1)c1ccc(F)cc1`
1

Threshold test, logP < 4: `Cc1ccc(C(=CCN2CCCC2)c2ccccn2)cc1`
1

Threshold test, logP < 4: `CN(C)CCCN1c2ccccc2Sc2ccc(Cl)cc21`
0

---

# test name: physchem
assay endpoint: pKa
One number for each entry.

Recorded pKa, per entry:
>  <compound>
COc1cc(N)c(Cl)cc1C(=O)NC1CCN(CCCOc2ccc(F)cc2)CC1OC (stereo not drawn) [CISAPRIDE]

>  <pKa>
7.9

$$$$
>  <compound>
CCCCOc1cc(C(=O)NCCN(CC)CC)c2ccccc2n1

>  <pKa>
8.85

$$$$

With those in mind, consider the next compound.
# compound `Cc1nc2sccn2c(=O)c1CCN1CCC(=C(c2ccc(F)cc2)c2ccc(F)cc2)CC1` ; its pKa = 8.2

---

What logP was measured for each of the following?
# test name: Partition coefficient, log P of the compound
# Type: physicochemical
# details: octanol/water; read-out: LogP
Answers are plain numbers.

Recorded logP, per entry:
>  <compound>
CN(C)CC/C=C1\c2ccccc2COc2ccccc21 [DOXEPIN]

>  <assay endpoint>
logP

>  <experimental result>
4.01

$$$$
>  <compound>
COc1ccc(CCN2CCC(Nc3nc4ccccc4n3Cc3ccc(F)cc3)CC2)cc1

>  <assay endpoint>
logP

>  <experimental result>
5.48

$$$$
>  <compound>
CC(CN(C)C)CN1c2ccccc2Sc2ccccc21 (stereo not given)

>  <assay endpoint>
logP

>  <experimental result>
4.81

$$$$

For every record below, what is its logP?
1. CC(NCCC(c1ccccc1)c1ccccc1)c1ccccc1 (stereo not given)
2. O=C1NCN(c2ccccc2)C12CCN(CCCC(c1ccc(F)cc1)c1ccc(F)cc1)CC2

[4.89, 5.83]

For every record below, what is its logP?
1. CCCCNc1ccc(C(=O)OCCN(C)C)cc1
2. CN[C@H]1CC[C@@H](c2ccc(Cl)c(Cl)c2)c2ccccc21 (single isomer, unassigned)
3. CNCCCC12CCC(c3ccccc31)c1ccccc12
4. CN(C)CC/C=C1/c2ccccc2Sc2ccc(Cl)cc21
5. COC(=O)[C@H]1[C@H]2C[C@@H]3c4[nH]c5cc(OC)ccc5c4CCN3C[C@H]2C[C@@H](OC(=O)c2cc(OC)c(OC)c(OC)c2)[C@@H]1OC

1: 3.73; 2: 4.3; 3: 4.5; 4: 5.18; 5: 3.72
